The measured values listed here are drawn from PubChem BioAssay (NCI).

System: NCI-H460 lung
methodSummary: NCI-60 one-dose screen, 48 h (100 = growth as untreated, 0 = no growth, -100 = all killed)
assaySetup: 10 µM unless noted
The panel holds about 83,000 compounds, 20% with a hit somewhere; the sample as a whole holds those more often.
Assign labels as follows, please: Y for growth below 70%; N for growth equal to or exceeding 70%.

Q. Would you kindly verify if growth of CC(=O)n1c(/C(C#N)=C/c2ccc(N(C)C)cc2)cc2ccccc21 is strictly less than 70%?
A. Y

Q. Field: below-cutoff. Rule: recorded growth strictly less than 70%. Subject: Nc1nc2c(c(=O)[nH]1)C(c1ccc3c(c1)OCO3)C=C(C(=O)O)N2 (stereo unspecified)
A. N

Q. Hello, I'm reviewing records and need to know if growth of Nc1c(C(=O)Nc2c(Cl)cccc2Cl)sc2nc3c(cc12)C(=O)CCC3 is below 70%. Could you check?
A. Y

Q. Please check: growth for COc1ccc(NC(=O)c2ccoc2COc2ccccc2)cc1 , strictly under 70% or not?
A. N

Q. Decide: growth of Cc1ccsc1-c1ccc2c(c1)COC2(CCCN(C)C)c1ccc(F)cc1 (stereo unspecified) strictly below 70%?
A. Y

Q. Is the reported growth for O=c1[nH]ncc(Br)c1Br strictly below 70%?
A. Y

Q. Lab note: confirm whether the reported growth for this compound is below 70%, equality not counting. compound: COc1ccc(C2(Cl)c3ccccc3N(c3ccccc3)c3ccccc32)cc1
A. Y

Q. Report whether reported growth is lower than 70% (strictly) for CCCCC(=O)OC1CCCCC1C (stereo unspecified)
A. N

Q. Determine whether this compound shows growth lower than 70% (ties excluded): Cc1ccc2c(c1)c1nc3cc(C)c(C)cc3nc1n2CCN(C)C
A. Y

Q. # check: growth < 70% for Cn1c(=O)c2c(nc(Br)n2CC(=O)Nc2ccc(F)cc2)n(C)c1=O
A. N

Q. Answer whether the compound O=C1CCN2C(=O)Nc3ccccc3C2C1 (stereo unspecified) has growth strictly less than 70%
A. N

Q. For Cn1cc(-c2csc(-c3c[nH]c4ccccc34)n2)c2cccnc21 , is the recorded growth below the cut-off of 70%?
A. Y

Q. Identify whether the compound Clc1ccccc1-c1nc(Nc2nc3ccccc3s2)nc(C(Cl)(Cl)Cl)n1 records growth below 70%.
A. Y

Q. Take the compound Clc1ccc(Cn2cc(-c3nc4ccc(Br)nc4n3Cc3ccc(Cl)cc3)c3cccnc32)cc1 and say whether its growth is less than 70%.
A. N

Q. # check: growth < 70% for CCCCC[C@H]1C/C=C2/C(=O)C(Cl)=C[C@@H]2C/C=C\CCCC(=O)O[C@@H](CCCCC)C/C=C2/C(=O)C(Cl)=C[C@@H]2C/C=C\CCCC(=O)O1
A. Y
